- target_system: hM5 (Homo sapiens)
- Construct: expressed in transfected cells
- protocol_notes: Calcium mobilization concentration-response (IC50 vs EC80 acetylcholine), CHO hM5
- Type: cell-based
- condition_context: CELL LINE hM5; vs EC80 acetylcholine; read-out: IC50
measurement_name: IC50 (µM)

Look over these answered cases.
1) COc1c(S(=O)(=O)N2CCC(F)(c3cn4ncnc4cc3C)CC2)cnn1C	0.147
2) Cc1cc(C(F)(F)F)ncc1C1CCN(S(=O)(=O)c2cnn3c2OCCC3)CC1	6.31
3) Cn1nc(-c2ccco2)cc1C1CCN(S(=O)(=O)c2cnn(C)c2Cl)CC1	3.1
4) COc1ncc(S(=O)(=O)N2CCC(c3cn4ncnc4cc3C)CC2)s1	0.529
5) CCc1cc2ncnn2cc1C1CCN(S(=O)(=O)c2cnc(Cl)s2)CC1	4.77

1: Cc1cc2ccnn2cc1C1CCN(S(=O)(=O)c2cnn(C)c2Cl)CC1
2: [2H]C1([2H])CC(c2cn3ncnc3cc2F)CC([2H])([2H])N1S(=O)(=O)c1cnc(C)o1
### Prompt Among 1 and 2 , which shows a numerically higher IC50 result? In your reply, give the label of the chosen option.
### Response 2

###

- target_system: hM5 (Homo sapiens, UniProt P08912)
- Construct: expressed in transfected cells
- protocol_notes: Calcium mobilization concentration-response (IC50 vs EC80 acetylcholine), CHO hM5
- Assay type: cell-based
- condition_context: CELL LINE hM5; calcium mobilization, EC80 acetylcholine addition; read-out: IC50
pIC50: −log10 of the molar value.
measurement_name: pIC50

1. O=S(=O)(c1c(Cl)nc2sccn12)N1CCC(c2cn3ncnc3cc2C(F)(F)F)CC1 [Compound 340]	6.76

I: Cc1cc2ncnn2cc1C1=CCN(S(=O)(=O)c2ccc3c(c2)C(C)CO3)CC1 (stereo not shown) [Compound 65]
II: Cc1cc2nccn2nc1C1CCN(S(=O)(=O)c2c(C)nn(C)c2Cl)CC1 [Compound 248]
### Prompt Among I and II , which shows a numerically higher pIC50 result? In your reply, give the label of the chosen option.
### Response II

###

- target_system: hM5 (Homo sapiens, UniProt P08912)
- Construct: expressed in transfected cells
- protocol_notes: Calcium mobilization concentration-response (IC50 vs EC80 acetylcholine), CHO hM5
- Assay type: cell-based
- condition_context: CELL LINE hM5; vs EC80 acetylcholine; read-out: IC50
measurement_name: IC50 (nM)

1) Cc1cc(S(=O)(=O)N2CCC(c3cn4ncnc4cc3CF)CC2)sn1	26
2) Cc1cc(S(=O)(=O)N2CCC(c3cn4ncnc4c(F)c3C)CC2)sn1	17
3) Cn1ncc(S(=O)(=O)N2CCC(c3cn4ncnc4cc3C(F)F)CC2)c1CC#N	414
4) Cc1ncc(S(=O)(=O)N2CCC(c3cn4ncnc4cc3C)CC2)o1	76
5) Cc1ncc(S(=O)(=O)N2CCC(c3cn4ncnc4cc3C(F)(F)F)CC2)o1	496

P: Cc1cc2ncnn2cc1C1(F)CCN(S(=O)(=O)c2cnn(C)c2C(F)F)CC1
Q: CC(C)Oc1c(S(=O)(=O)N2CCC(c3cn4ncnc4cc3Cl)CC2)cnn1C
### Prompt Among P and Q , which shows a numerically higher IC50 result? In your reply, give the label of the chosen option.
### Response Q
(Q: 159 nM, P: 86 nM)

###

- target_system: hM5 (Homo sapiens, UniProt P08912)
- Construct: expressed in transfected cells
- protocol_notes: Calcium mobilization concentration-response (IC50 vs EC80 acetylcholine), CHO hM5
- Format: cell-based
- condition_context: CELL LINE hM5; calcium mobilization, EC80 acetylcholine addition; read-out: IC50
pIC50: −log10 of the molar value.
measurement_name: pIC50

Look over these answered cases.
1) Cc1cc2ncnn2cc1C1CCN(S(=O)(=O)c2cn(C)c(C)n2)CC1 [Compound 320]	5.14
2) Cn1ncc(S(=O)(=O)N2CC=C(c3cc4c(cc3Cl)OCO4)CC2)c1Cl [Compound 351]	6.85
3) Cc1cc2ncnn2cc1[C@@H]1CCN(S(=O)(=O)c2cnn(C)c2C)C[C@H]1F (racemic) [Compound 174]	7.70
4) Cc1cc2ncnn2cc1C1CCN(S(=O)(=O)c2c(C)nn(C)c2Cl)CC1 [Compound 138]	7.59
5) Cc1cc2nccn2nc1N1CCN(S(=O)(=O)c2ccc3c(c2)CCO3)CC1 [Compound 36]	5.40

1: Cc1cc2ncnn2cc1C1CCN(S(=O)(=O)c2ccc3c(c2)N(C)CCO3)CC1 [Compound 121]
2: Cc1cc(C(F)(F)F)ncc1C1CCN(S(=O)(=O)c2cnn(C)c2Cl)CC1 [Compound 395]
3: [2H]C1([2H])Oc2cc(C)c(C3CCN(S(=O)(=O)c4cnc(C)n4C)CC3)cc2OC1([2H])[2H] [Compound 391]
4: O=S(=O)(c1cnn2c1CCC2)N1CCC(c2ccc3ncnn3c2)CC1 [Compound 285]
5: O=S(=O)(c1c(Cl)nc2sccn12)N1CCC(c2cn3ncnc3cc2Cl)CC1 [Compound 344]
### Prompt Put the compounds in ascending order of pIC50. Arrange the labels as the request states and list them.
### Response 2, 3, 1, 4, 5
(2: 5.89, 3: 6.20, 1: 6.46, 4: 7.29, 5: 7.74)

###

- target_system: hM5 (Homo sapiens)
- Construct: expressed in transfected cells
- Sequence (P08912 1-532): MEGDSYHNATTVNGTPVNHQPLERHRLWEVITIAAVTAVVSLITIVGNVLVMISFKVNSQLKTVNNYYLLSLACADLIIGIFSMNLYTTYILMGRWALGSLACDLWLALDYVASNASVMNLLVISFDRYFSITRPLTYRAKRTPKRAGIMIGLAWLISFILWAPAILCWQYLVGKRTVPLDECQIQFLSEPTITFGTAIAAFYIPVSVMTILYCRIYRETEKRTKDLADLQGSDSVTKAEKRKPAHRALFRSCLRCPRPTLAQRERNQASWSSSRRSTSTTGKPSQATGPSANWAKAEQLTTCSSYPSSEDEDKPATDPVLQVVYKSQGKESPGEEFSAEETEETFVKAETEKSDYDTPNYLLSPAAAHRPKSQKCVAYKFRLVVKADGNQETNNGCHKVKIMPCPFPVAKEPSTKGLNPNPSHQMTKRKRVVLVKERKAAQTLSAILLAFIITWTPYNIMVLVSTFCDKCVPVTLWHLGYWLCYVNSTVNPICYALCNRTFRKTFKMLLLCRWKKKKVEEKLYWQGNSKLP
- protocol_notes: Calcium mobilization concentration-response (IC50 vs EC80 acetylcholine), CHO hM5
- Assay type: cell-based
- condition_context: CELL LINE hM5; vs EC80 acetylcholine; read-out: IC50
pIC50: −log10 of the molar value.
measurement_name: pIC50

Look over these answered cases.
1) Cc1ncc(S(=O)(=O)N2CCC(c3cnc(N(C)C)cc3C)CC2)s1	7.03
2) Cc1cc2nccnc2cc1C1CCN(S(=O)(=O)c2cnn(C)c2Cl)CC1	7.26
3) [2H]C([2H])([2H])Oc1c(S(=O)(=O)N2CCC(c3nn4ncnc4cc3C)CC2)cnn1C	5.70

P: Cc1cnccc1C1CCN(S(=O)(=O)c2cnn(C)c2C)CC1
Q: Cc1c(C2CCN(S(=O)(=O)c3cn(C)nn3)CC2)cn2ncnc2c1F
R: Cc1nnc(S(=O)(=O)N2CCC(c3cn4ncnc4cc3Cl)CC2)s1
### Prompt Put the molecules in ascending order of pIC50. Arrange the labels as the request states and list them.
### Response P, Q, R
(P: 6.09, Q: 6.63, R: 7.55)

###

- target_system: hM5 (Homo sapiens)
- Construct: expressed in transfected cells
- protocol_notes: Calcium mobilization concentration-response (IC50 vs EC80 acetylcholine), CHO hM5
- Format: cell-based
- condition_context: CELL LINE hM5; vs EC80 acetylcholine; read-out: IC50
measurement_name: IC50 (nM)

I: [2H]C([2H])([2H])Oc1c(S(=O)(=O)N2CCC(c3cn4ncnc4c(F)c3C)CC2)cnn1C
II: Cc1cc2nccn2nc1N1CCN(S(=O)(=O)c2cnn3c2CCC3)CC1
### Prompt I'm curious, which of these has a smaller IC50 number: I or II ? In your reply, give the label of the chosen option.
### Response II
(II: 22 nM, I: 59 nM)

###

- target_system: hM5 (Homo sapiens)
- Construct: expressed in transfected cells
- protocol_notes: Calcium mobilization concentration-response (IC50 vs EC80 acetylcholine), CHO hM5
- Format: cell-based
Reported IC50 values are given for each entry in this list.

Look over these answered cases.
1) Cc1cc2ncnn2cc1C1CC2CCC(C1)N2S(=O)(=O)c1cnn2c1CCC2 (stereo not drawn) [Compound 193]	1.6 µM
2) Cc1cc2ncnn2cc1C1=CC2CCC(C1)N2S(=O)(=O)c1ccc2c(c1)CCO2 (stereo not drawn) [Compound 190]	> 10 µM

### Prompt # IC50 lookup, item Cc1cc2ncnn2cc1C1CC2CCC(C1)N2S(=O)(=O)c1cnn(C)c1C (stereo not drawn) [Compound 191]
### Response > 10 µM
